- Tested on: PXR homodimer (NR concentration 270 nM)
- ASSAY_NAME: PBM binding z-score (relative to random genomic background probes); higher = stronger binding; sequences stand for … in GC…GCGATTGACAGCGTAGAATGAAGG
Class definitions on PBM binding z-score: lo (below 0.2), mid (0.2 to below 2), hi (2 or more)

Where would TCATATAGGTAATAGGTGAAAGTCGGTGTGGTAA land among the classes by reported PBM binding z-score?
mid

Where would AATACAGGGTCCTCGTAGGCCAGAGTACGCACAG land among the classes by reported PBM binding z-score?
lo

Where would ATATGTAGGTTAGGGTCAATCAGAAAGTAGGGAA land among the classes by reported PBM binding z-score?
mid

Where would TCTAGTTGGTCAAAGGTCTCACACTCGAAATGCG land among the classes by reported PBM binding z-score?
mid

Where would TCGAGTTGGTTACGGGGGCATTCAGGGATGAAGA land among the classes by reported PBM binding z-score?
hi

Where would CCTAGTTGGTCAGGTGGTCACACACCGGATATGA land among the classes by reported PBM binding z-score?
mid

Where would AGAATGAGGTTACACGTAGATCAGGGAAGAAAGT land among the classes by reported PBM binding z-score?
lo

Where would TCGGGTAGGTTACGGGGGCATTCAGGGATGAAGA land among the classes by reported PBM binding z-score?
hi

Where would CTATGTAGGTTCAGGGGGTCATTCAGTTTGAAAG land among the classes by reported PBM binding z-score?
hi

Where would TCTTGTAGATCAAAGGTCAAGAAAGCCGAAGCCT land among the classes by reported PBM binding z-score?
mid

Where would CAAACTAGGTCAAAGGTCAAAGACGAGCCAACCA land among the classes by reported PBM binding z-score?
mid

Where would CGTCCAAGGTCAAAGGTCAGTAAAGAGATGACGG land among the classes by reported PBM binding z-score?
mid

Where would CGAACTAGTTCAAGGACAGTGAATCTCCGCACGC land among the classes by reported PBM binding z-score?
mid

Where would ATACCAAGGTTATCGTGAGGTCGTTGATACTAAC land among the classes by reported PBM binding z-score?
hi

Where would CGAACTAGGTTACCAGGACAGTGAAGAGGTTGGA land among the classes by reported PBM binding z-score?
lo

Where would CCGAGTAGGTTACGAGGGGGAATTCAGTGCGAAT land among the classes by reported PBM binding z-score?
mid

Where would CTATATAGGTTAAGGGGGTCATTCAGTTTGAAAG land among the classes by reported PBM binding z-score?
hi

Where would GGAACGGGGGCATTCGAGTTGATAGCATGGCGAT land among the classes by reported PBM binding z-score?
hi

Where would CGAACTAGGTCAAAGGACAGTGTAAGGCGACGTA land among the classes by reported PBM binding z-score?
lo

Where would TCGAGTAGGTTACGGGGGCATTCACGGATGAAGA land among the classes by reported PBM binding z-score?
mid

Where would GCTTACGGGTCAAAGGTTAAAGCATGAATAGAAT land among the classes by reported PBM binding z-score?
mid

Where would CGAACTAGGTCAGAACAGTACAGTGAAGGATGAT land among the classes by reported PBM binding z-score?
mid

Where would CCGAGTAGGTTTCGAGGGGGCATTCAGTGCGAAT land among the classes by reported PBM binding z-score?
hi

Where would CGAACTAGGTCAAAGGCCAGTGAAAGGCGACGTA land among the classes by reported PBM binding z-score?
lo

Where would CGAACTAGGTCACCGGGACAGTGAAGAGGTTGGA land among the classes by reported PBM binding z-score?
lo

Where would GATACAGGGTCAATGCCAGAGTACGCGTATTGAT land among the classes by reported PBM binding z-score?
lo

Where would CGTCAAAGTTCACCTAAGGTAACGTAAAGCACGC land among the classes by reported PBM binding z-score?
hi

Where would ATCGAATGGTCGAGGTGAGTATAGAGAAAGGGAA land among the classes by reported PBM binding z-score?
lo

Where would CTGAGTAGGTTACGAGGGGGCATTCAGTGCGAAT land among the classes by reported PBM binding z-score?
hi

Where would ACTAGGTGGTCAGCTGAGGTCACACACAATTCGG land among the classes by reported PBM binding z-score?
mid

Where would CCAGACAGGTGAAAGGTAACTCACTCTGGTACGC land among the classes by reported PBM binding z-score?
lo

Where would CCTGGCAGGCCAGGGTCACTCAAGCATTTCGCTT land among the classes by reported PBM binding z-score?
lo

Where would CGAACTAGGTCCTTGACAGGACAGTGAATAGTAA land among the classes by reported PBM binding z-score?
lo

Where would CGTCTAAGTTCAAGGTAACGTAACAGAAAGCAGC land among the classes by reported PBM binding z-score?
hi

Where would CTATGTACGTTAAGGGGGTCATTCAGTTTGAAAG land among the classes by reported PBM binding z-score?
hi

Where would CACACTAGGTCAAGAGGTCAAAGTCCGCTTCCCG land among the classes by reported PBM binding z-score?
hi

Where would CTATGTAGGTTAAGGGGGTCATACAGTTTGAAAG land among the classes by reported PBM binding z-score?
hi

Where would ATATGCAGGTTAGGGTCATTCAGAAAGTAGGGAA land among the classes by reported PBM binding z-score?
mid

Where would AGTCAAATTTCACTAGGTAACGTAAGATTCAGCT land among the classes by reported PBM binding z-score?
lo

Where would ATATGTAGATTAGGGTCATTCAGAAAGTAGGGAA land among the classes by reported PBM binding z-score?
mid

Where would ATATGGAGGTTAGCTGGGGTCATTCAGACTAGGC land among the classes by reported PBM binding z-score?
hi

Where would ATCTCTAGGTAACAAGGTCAGTGAAAGAGAGGAC land among the classes by reported PBM binding z-score?
mid

Where would CTATGTAGGTTAACGGGGTCATTCAGTTTGAAAG land among the classes by reported PBM binding z-score?
hi

Where would ATACGTAGGTTAGGGTCATTCAGAAAGTAGGGAA land among the classes by reported PBM binding z-score?
mid

Where would ATATGTAGGTTAGGATCATTCAGAAAGTAGGGAA land among the classes by reported PBM binding z-score?
mid

Where would CGTCAAAGCTCAACTAAGGTAACGTAAAGCACGC land among the classes by reported PBM binding z-score?
lo

Where would CTAACTAGGTCAAAGGACAGTGAAAGGCGACGTA land among the classes by reported PBM binding z-score?
lo

Where would CGAACTAGGTCACCAGGACAGTGAGGAGGTTGGA land among the classes by reported PBM binding z-score?
lo

Where would CCGAGTAGGTTACGACGGGGCATTCAGTGCGAAT land among the classes by reported PBM binding z-score?
lo

Where would CGAACTAGGTCACCAGGACAGGGAAGAGGTTGGA land among the classes by reported PBM binding z-score?
lo
